target: rat NHE-3 (Rattus norvegicus, UniProt P26433); construct: expressed in transfected cells; host or cells: Opossum kidney (OK) cells (ATCC), electroporated; experiment: Cell-based assay of NHE-3 activity (Pharmacological Test Example 1); details: OK cells expressing rat NHE-3; 0-30 uM test compound, 5 uM EIPA
Sequence (P26433 29-831): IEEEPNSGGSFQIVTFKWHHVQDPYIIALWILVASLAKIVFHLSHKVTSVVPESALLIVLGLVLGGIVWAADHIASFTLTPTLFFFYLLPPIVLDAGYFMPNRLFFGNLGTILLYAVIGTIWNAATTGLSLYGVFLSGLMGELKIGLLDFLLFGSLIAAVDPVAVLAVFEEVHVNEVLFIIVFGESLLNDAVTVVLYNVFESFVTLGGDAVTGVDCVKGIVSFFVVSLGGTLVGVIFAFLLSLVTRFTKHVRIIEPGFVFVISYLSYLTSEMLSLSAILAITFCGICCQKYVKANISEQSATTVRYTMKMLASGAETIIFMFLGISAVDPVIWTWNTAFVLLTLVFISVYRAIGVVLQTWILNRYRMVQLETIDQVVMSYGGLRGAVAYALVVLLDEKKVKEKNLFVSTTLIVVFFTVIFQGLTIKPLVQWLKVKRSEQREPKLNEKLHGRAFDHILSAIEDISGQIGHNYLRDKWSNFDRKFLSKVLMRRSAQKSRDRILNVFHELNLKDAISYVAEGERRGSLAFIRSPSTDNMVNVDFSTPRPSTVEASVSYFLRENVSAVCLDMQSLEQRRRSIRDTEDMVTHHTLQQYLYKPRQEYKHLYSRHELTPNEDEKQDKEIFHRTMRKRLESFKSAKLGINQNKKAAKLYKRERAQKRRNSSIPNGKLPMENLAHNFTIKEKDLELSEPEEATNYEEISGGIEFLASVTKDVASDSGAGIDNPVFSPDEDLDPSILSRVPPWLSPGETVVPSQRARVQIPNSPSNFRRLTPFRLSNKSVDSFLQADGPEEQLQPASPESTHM
Quantity measured: rat NHE-3 Average pIC50

Solved entries (count: 3):
CN1Cc2c(Cl)cc(Cl)cc2C(c2cccc(S(=O)(=O)NCCOCCOCCOCCNC(=O)CCCCCCC(=O)NCCOCCOCCOCCNS(=O)(=O)c3cccc(C4CN(C)Cc5c(Cl)cc(Cl)cc54)c3)c2)C1 (stereo not drawn) ... 6 to 7
CN1Cc2c(Cl)cc(Cl)cc2C(c2cccc(S(=O)(=O)NCCOCCOCCOCCNC(=O)CCOCCOCCOCCOCCOCCOCCOCCOCCOCCC(=O)NCCOCCOCCOCCNS(=O)(=O)c3cccc(C4CN(C)Cc5c(Cl)cc(Cl)cc54)c3)c2)C1 (stereo not drawn) ... 6 to 7
NC(N)=Nc1nc(-c2cccc(N3CCN(C(=O)[C@H](O)[C@@H](O)[C@H](O)[C@H](O)CO)CC3)c2)c2cc(Cl)ccc2n1 ... 5 to 6

Incoming: Which measured rat NHE-3 Average pIC50 value corresponds to CN1Cc2c(Cl)cc(Cl)cc2C(c2cccc(S(=O)(=O)NCCOCCOCCOCCNC(=O)NCCCCNC(=O)NCCOCCOCCOCCNS(=O)(=O)c3cccc(C4CN(C)Cc5c(Cl)cc(Cl)cc54)c3)c2)C1 (stereo not drawn) ?
Outgoing: >7

Incoming: Which measured rat NHE-3 Average pIC50 value corresponds to CN1Cc2c(Cl)cc(Cl)cc2C(c2cccc(S(=O)(=O)NCCOCCOCCOCCNC(=O)c3cccc(C(=O)NCCOCCOCCOCCNS(=O)(=O)c4cccc(C5CN(C)Cc6c(Cl)cc(Cl)cc65)c4)c3)c2)C1 (stereo not drawn) ?
Outgoing: 6 to 7

Incoming: Which measured rat NHE-3 Average pIC50 value corresponds to CN1Cc2c(Cl)cc(Cl)cc2C(c2cccc(S(=O)(=O)NCCOCCOCCOCCNC(=O)c3cc(C(=O)NCCOCCOCCOCCNS(=O)(=O)c4cccc(C5CN(C)Cc6c(Cl)cc(Cl)cc65)c4)cc(C(=O)NCCOCCOCCOCCNS(=O)(=O)c4cccc(C5CN(C)Cc6c(Cl)cc(Cl)cc65)c4)c3)c2)C1 (stereo not drawn) ?
Outgoing: >7

Incoming: Which measured rat NHE-3 Average pIC50 value corresponds to CN1Cc2c(Cl)cc(Cl)cc2C(c2ccc(S(=O)(=O)NCCOCCOCCNC(=O)C(O)C(O)C(=O)NCCOCCOCCNS(=O)(=O)c3ccc(C4CN(C)Cc5c(Cl)cc(Cl)cc54)cc3)cc2)C1 (stereo not drawn) ?
Outgoing: >7

Incoming: Which measured rat NHE-3 Average pIC50 value corresponds to CN1Cc2c(Cl)cc(Cl)cc2C(c2cccc(S(=O)(=O)NCCOCCOCCNC(=O)C(C)(C)C(=O)NCCOCCOCCNS(=O)(=O)c3cccc(C4CN(C)Cc5c(Cl)cc(Cl)cc54)c3)c2)C1 (stereo not drawn) ?
Outgoing: 5 to 6

Incoming: Which measured rat NHE-3 Average pIC50 value corresponds to CN1Cc2c(Cl)cc(Cl)cc2C(c2ccc(S(=O)(=O)NCCOCCOCCNC(=O)C(=O)NCCOCCOCCNS(=O)(=O)c3ccc(C4CN(C)Cc5c(Cl)cc(Cl)cc54)cc3)cc2)C1 (stereo not drawn) ?
Outgoing: <5.0

Data provenance: patent US20190374533A1
